target: alkaline phosphatase (Bos taurus, UniProt P19111); assay: Detection limits for alkaline phosphatase, Berthold LB952T (Example XXII); assay type: biochemical; settings: ENHANCER 1; 5 MIN; twice background
Sequence (P19111 20-506 limits assumed): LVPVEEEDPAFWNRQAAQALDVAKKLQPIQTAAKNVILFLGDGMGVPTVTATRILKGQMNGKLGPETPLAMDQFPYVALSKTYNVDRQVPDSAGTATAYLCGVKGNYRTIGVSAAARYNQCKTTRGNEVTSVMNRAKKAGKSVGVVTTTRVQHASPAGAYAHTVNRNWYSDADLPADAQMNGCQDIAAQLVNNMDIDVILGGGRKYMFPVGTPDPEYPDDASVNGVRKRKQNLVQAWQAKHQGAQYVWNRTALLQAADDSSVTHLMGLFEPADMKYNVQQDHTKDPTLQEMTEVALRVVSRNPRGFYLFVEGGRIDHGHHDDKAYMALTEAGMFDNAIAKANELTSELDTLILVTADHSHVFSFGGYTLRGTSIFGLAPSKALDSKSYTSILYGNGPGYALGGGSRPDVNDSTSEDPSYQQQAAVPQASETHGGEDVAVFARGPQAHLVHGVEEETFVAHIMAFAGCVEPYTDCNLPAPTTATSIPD
Recorded Detection limit for alkaline phosphatase values for a group of compounds are listed next.
Readout Kind: Detection limit for alkaline phosphatase (femtomoles/liter)

INSERT INTO results (compound, tested_system, observed_value) VALUES
  ('COC1(c2cccc(OP(=O)(O)O)c2)OOC12C1CC3CC(C1)CC2C3 (stereo not shown) [AMPPD, reference compound]', 'alkaline phosphatase (Bos taurus, UniProt P19111)', 4.0),
  ('COC1(c2cccc(OP(=O)(O)O)c2)OOC12C1CC3CC2CC(Cl)(C3)C1 (stereo not shown)', 'alkaline phosphatase (Bos taurus, UniProt P19111)', 1.0),
  ('COC1(c2cccc(OP(=O)(O)O)c2)OOC12C1CC3CC2CC(O)(C3)C1 (single isomer, unassigned)', 'alkaline phosphatase (Bos taurus, UniProt P19111)', 3.0),
  ('COC1(c2cccc(OP(=O)(O)O)c2)OOC12C1CC3CC2CC(Br)(C3)C1 (stereo not shown)', 'alkaline phosphatase (Bos taurus, UniProt P19111)', 2.6);
